Reported self-cleavage kobs at 10000 uM GlcN6P values for the following variants.
B1: glmS ribozyme (parent)
chain: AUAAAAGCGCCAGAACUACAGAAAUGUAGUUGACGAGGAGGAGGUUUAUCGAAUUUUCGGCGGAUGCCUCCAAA

Variants of: B1
Test: self-cleavage kobs at 10000 uM GlcN6P; higher = faster cleavage; RNA array
Details: with glucosamine-6-phosphate
Fewer inactive variants are shown than the library holds.

1. AUAAAAGCGCAAGAACUACAGAAAUGUAGUUGACAAGGAGGAGGUUUAUCGAAUAUUCGUCGGAAGCGUCCAAA [C11A G35A U55A G60U U65A C68G] ... 5.33e-05 s⁻¹

query: // query self-cleavage kobs at 10000 uM GlcN6P value for entry AUAAACGCGCCAGAACUACAGAAAUGUAGUUCACGAGGAGGAGGUUUAGCGAAUUUUCGGCGGAUGCCUCCAAA [A6C G32C U49G]
result: < 1e-05 s⁻¹

query: Then AUAAAAACGCCAGAACUACAGAAAUGUAGUUGACGCGGAGGAGGUUUAUCGAAUUUUCGGCGGAUGCCUCCAAA [G7A A36C] ?
result: < 1e-05 s⁻¹

query: Then AUAAAAACCCCAGAAGUACAGAAAUGUAGUUGACGAGGAGGAGGUUUAUCGAAUUUUCGGCGGAUGCCUCCAAA [G7A G9C C16G] ?
result: < 1e-05 s⁻¹

query: Then AUAAAAGCGCCAGAACUACAGAAAUGUAGUUGACGAGGAAGAGGUUUAUCGAAUUUUCGGCUGAUGCCUCCAAA [G40A G62U] ?
result: < 1e-05 s⁻¹

query: Then AUAAAAGCGCCAAAACUACAGAAAUGUAGUUGACGAGGAGGAGGUUUAUCGAAUUAUCGGCGGGUGCCUCCAAA [G13A U56A A64G] ?
result: 0.000291 s⁻¹

query: Then AUAAAAGCGCCAGAACUACAGAAAUGUAGUUGACGAGGAGGGGGUUUAUCGAAUCUUCGGCGGAUGCCUCCAAA [A42G U55C] ?
result: 0.0147 s⁻¹

query: Then AUAAAAGCGCCAGAACUACAGAAAUGUACUUGAGGAGGACGAGGUUUAUCGAAUUUUCGGCGGAUGCCUACAAA [G29C C34G G40C C70A] ?
result: < 1e-05 s⁻¹

query: Then AUAAAAGCGCCAGAGCUACAGAAAUGUAGUUCACGAGGAGGAGGUUUAUCGAAUUUUCGGCGGAUGCCUCCAAA [A15G G32C] ?
result: 0.000154 s⁻¹

query: Then AUAAAAAAACCAGAACUACAGAAAUGUAGUUGACGAGGAGGAGGUUUAUCGAAUUUUCGGCAGAUGCCUCCAAA [G7A C8A G9A G62A] ?
result: < 1e-05 s⁻¹

query: Then AUAAAGGCGCCAGAACUACAGAAAUGUAGUUGACGAGGAGGAGGUUUAUCGAAUUUUCGGCGGAUGCCACCAAA [A6G U69A] ?
result: < 1e-05 s⁻¹

query: Then AUAAAAGCGCCAGAACUACAGAAAUGUAGUUGGCUAGGGGGAGGUUUAUCGAUUUUUCGGCCGAUGCCUCCAAA [A33G G35U A39G A53U G62C] ?
result: < 1e-05 s⁻¹

query: Then AUAAAAGCGCUAGAACUACAGAAAUGUAGUUGACGAGGAGGAGCUUUAUCGAAUUUUCGUCGGAUGCCUCCAAA [C11U G44C G60U] ?
result: < 1e-05 s⁻¹

query: Then AUAAAAGCGCCAGAACUACAGAAAUGUAGUUAACGAGGAGGAGGUUUAUCGAAUUUUCGGCGGAUGCCCCCAAA [G32A U69C] ?
result: 0.000717 s⁻¹

query: Then AUAAAAGCGCCAGAACUACAGAAAUGUAGUUGACGAGGAGGAGGGUUAUCGAAUCUUCGGCGGAUGCCUCCAAA [U45G U55C] ?
result: 0.00455 s⁻¹

query: Then AUAAAAGCGCUAGAACUACAGAAAUGUAGUUGACGAGGAGGAGGUUUGUCGAGUUUUCGGCGGAUGCCUCCAAA [C11U A48G A53G] ?
result: < 1e-05 s⁻¹

query: Then AUAAAAGCGGCAGAACUACAGAAAUGUAGUUGACGAGGAGGAGGUUUAUCGGAUUUUCGGCGGAUGCCUCCAAA [C10G A52G] ?
result: < 1e-05 s⁻¹

query: Then AUAAAUGCGCCAGAACUACAGAAAUGUAGUGGACGAGGAGGAGGUUUAUCGAAUUUUCGGCGGAUGCCUCCAAA [A6U U31G] ?
result: 7.27e-05 s⁻¹

query: Then AUAAAAGCGCCAGAACUACAGAAAUGUAGUUGACCAGGAGGAGGUUUAUCGAAUUUUCGGCGGAUGCCUCUAAA [G35C C71U] ?
result: < 1e-05 s⁻¹

query: Then AUAAAAGCGCCACAACUACAGAAAUGUAGUUGACGAGGAGGAGGUUUAUCGAUUUUUCGGCGGAUGCCUCCAAA [G13C A53U] ?
result: 8.95e-05 s⁻¹

query: Then AUAAAAGCGCCAGAACUACAGAAAUGUAGUUGAAGAGGAGGAGGUUUAUCGAAUUUUCGGUGGAUGUCUCCAAA [C34A C61U C67U] ?
result: < 1e-05 s⁻¹

query: Then AUAAAAGCGCCAGAACUACAGAAAUGUAGUUGACGAUAAGGAGGUUUAUCGAAUUUUCGGCGGAUGUCUCCAAA [G37U G38A C67U] ?
result: < 1e-05 s⁻¹
